System: Trypanosoma brucei
Assay: Trypanosoma brucei 72 hour study
Format: functional, organism-based
Design: scale not given: in the data most compounds retested in dose-response had high values
Settings: 30 µM; 30.03 µM
In all, about 66,000 compounds went through this assay and about 960 (1.5%) showed an effect of 50% or more. The sample holds strong results, similar compounds and a random draw of the others, so the mix is not that of the screen.
measured_quantity: Percent Effect (%)
All answers are understood in %, so give the number only.

COc1cc(Oc2cnc3ccccc3n2)ccc1CN1CCCC1 :: -18.27
c1cc(-c2nc3c(c(NCCn4ccnn4)n2)CCNCC3)ccn1 :: -15.86
COc1cc(N2C[C@@H]3COC[C@]3(COCc3ccncc3)C2)ncn1.O=C(O)C(F)(F)F.O=C(O)C(F)(F)F :: -12.8
Cc1cc(C(=O)NCc2cc(C)oc2C)no1 :: -30.84
CCN(CC)S(=O)(=O)c1ccc(CNC(=O)N2CCC(C#N)CC2)cc1 :: 70.46

Requested field: Percent Effect. Item: `Clc1ccccc1-c1cc(CNc2ncnc3c2CCNCC3)no1`
-18.38

Requested field: Percent Effect. Item: `CNC(=O)c1cc2c(nc1NCC1CC1)CCN(S(C)(=O)=O)CC2.O=C(O)C(F)(F)F`
-3.721

Requested field: Percent Effect. Item: Cc1ccc(CC(=O)NCC(O)c2cc(Cl)cc(Cl)c2)cn1 (stereo unspecified)
-24.81

Requested field: Percent Effect. Item: `Cc1cc(C(=O)N2CCN(c3nc4c(C(C)C)cccc4s3)CC2)no1`
-24.13

Requested field: Percent Effect. Item: `CC(C)c1cc(NC(=O)c2ccc(C(=O)NC(C)(C)C)cc2)[nH]n1`
33.13

Requested field: Percent Effect. Item: Cc1ccccc1N1CCN(c2cc(N(C)C)ncn2)C(C)C1 (stereo unspecified)
6.135

Requested field: Percent Effect. Item: CCOCc1ccccc1NC(=O)NCC(C)(O)c1cc(C)oc1C (stereo unspecified)
-15.34

Requested field: Percent Effect. Item: `Cc1nn(CC(=O)N2CCN(Cc3cn(C)nc3C)CC2)cc1Br`
-22.12

----------
Test system: Trypanosoma brucei
Assay: Trypanosoma brucei 72 hour study
Assay type: functional, organism-based
Set-up: scale not given: in the data most compounds retested in dose-response had high values
Details: 30.3 µM; […]
In all, about 66,000 compounds went through this assay and about 960 (1.5%) showed an effect of 50% or more. Shown is part of a subset that was picked to be rich in strong results.
measured_quantity: Percent Effect (%)
All answers are understood in %, so give the number only.

CCOc1cc(CNc2nnn(C)n2)ccc1OCc1ccc(Cl)cc1 :: 13.85
Cc1ccc([C@]2(O)CC[C@H]3CN(Cc4ccc(Cl)cc4Cl)C[C@H]32)nc1 :: -1.046
O=C(O)C(F)(F)F.O=C(c1ccnnc1)N1C[C@H](Oc2ccccn2)[C@H]2OCCC[C@H]21 :: -55.97

Requested field: Percent Effect. Item: `Cc1ccc([C@]2(O)CC[C@H]3CN(Cc4cc(C)c(O)c(C)c4)C[C@H]32)nc1.O=C(O)CC(O)(CC(=O)O)C(=O)O`
27.71

Requested field: Percent Effect. Item: NC(=O)NCC1CCCCN1C(=O)c1cccc(Cl)c1 (stereo not given)
-13.75

Requested field: Percent Effect. Item: NC(=O)NCC1CCCCN1C(=O)c1cc(F)cc(F)c1 (stereo not given)
-17.02

Requested field: Percent Effect. Item: Cc1cc(CCC(N)=O)cc(C2CCCN2Cc2cnc(C)nc2)n1 (stereo not given)
-5.889

Requested field: Percent Effect. Item: `CSc1ccc(CN2C[C@@H]3CC[C@@](O)(c4ccc(C)cn4)[C@@H]3C2)cc1`
79.51

Requested field: Percent Effect. Item: Cl.NCC(=O)N1CCCC1c1nccnc1Nc1ncccn1 (stereo not given)
-17.2

Requested field: Percent Effect. Item: Cc1ccc(-c2nc(CNCC3CN(C)CCO3)cs2)o1 (stereo not given)
4.391
